Where do the numbers come from? From patent US12171768B2.

Test: Phase 1 MAD plasma pharmacokinetics
Type: in vivo, human
Details: human, plasma, oral; steady-state (Day 14), 25 mg QD; geometric mean (% CV)

molecular_string	unit_label	Cmax at 14 days
Cn1c(=O)n([C@@H]2CCC(=O)NC2=O)c2cccc(C#CCOC3CCN(C[C@H]4CC[C@H](n5cc(NC(=O)c6cnn7ccc(N8C[C@H]9C[C@@H]8CO9)nc67)c(C(F)F)n5)CC4)CC3)c21	ng/mL	8.2

###

Test: Phase 1 SAD plasma pharmacokinetics
Format: in vivo, human
Details: human, plasma; SAD 1, single oral dose 25 mg, healthy volunteers

molecule	Tmax [h]
Cn1c(=O)n([C@@H]2CCC(=O)NC2=O)c2cccc(C#CCOC3CCN(C[C@H]4CC[C@H](n5cc(NC(=O)c6cnn7ccc(N8C[C@H]9C[C@@H]8CO9)nc67)c(C(F)F)n5)CC4)CC3)c21 [Compound A]	8
